assay: Fraction unbound in Wistar rat plasma at 1 mg/kg, iv administered as bolus dose and 10 mg/kg, po; type: ADME, organism-based
Endpoint label: fraction unbound
Response field accepts a number only; no unit should be typed.

Request: Any idea what fraction unbound was measured for COc1cnc2cccc([C@@H](O)[C@H](O)[C@@H]3CC[C@@H](NCc4ccc5c(n4)NC(=O)CS5)CO3)c2n1 ?
Response: 0.18

====

test: AUC in Wistar rat at 10 mg/kg, po; assay type: ADME, organism-based; design: dose 10 mg/kg, route oral; details: plasma
Item-by-item account of AUC
# value in ng·h/mL; strip the unit string

COc1cnc2cccc([C@@H](O)[C@H](O)[C@@H]3CC[C@@H](NCc4ccc5c(n4)NC(=O)CS5)CO3)c2n1 : 817

# next compound below
Request: Any idea what AUC was measured for COc1ccc2nccc(CC[C@@H]3CC[C@@H](NCc4ccc5c(n4)NC(=O)CS5)CO3)c2n1 ?
Response: 1320
